# Measured On: HCV NS3 helicase NS3h_1b(con1) (Hepatitis C virus genotype 1b, UniProt Q9WMX2)
# Construct: truncated C-terminally His-tagged NS3 proteins lacking the N-terminal protease, called NS3h; His-tag (C); made in house
# Sequence (Q9WMX2 1192-1657): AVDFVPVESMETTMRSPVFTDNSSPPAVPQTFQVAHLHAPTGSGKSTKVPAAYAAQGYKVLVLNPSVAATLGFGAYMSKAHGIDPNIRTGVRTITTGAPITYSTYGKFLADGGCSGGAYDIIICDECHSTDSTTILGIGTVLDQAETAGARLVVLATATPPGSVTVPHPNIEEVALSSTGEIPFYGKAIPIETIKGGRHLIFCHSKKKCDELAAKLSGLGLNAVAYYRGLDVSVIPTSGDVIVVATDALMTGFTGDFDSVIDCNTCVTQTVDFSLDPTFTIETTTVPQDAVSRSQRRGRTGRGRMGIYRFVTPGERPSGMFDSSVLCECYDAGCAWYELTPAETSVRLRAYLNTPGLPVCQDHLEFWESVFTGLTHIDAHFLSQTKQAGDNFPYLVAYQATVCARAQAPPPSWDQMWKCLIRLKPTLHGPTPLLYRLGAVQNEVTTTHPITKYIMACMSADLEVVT
# Measurement Protocol: MBHA screen of NCI mechanistic set library at 20 μM (percent inhibition, compound interference)
# Type: biochemical
# Recorded Conditions: compounds at 20 μM, MBHA with a DNA substrate; calculated from Equation 1
# Method: All molecular beacon-based helicase assays (MBHAs) were performed according to known methods (Belon & Frick (2008) supra; Belon & Frick (2009) supra). […] Fluorescence was read before ATP (F0) addition and 30 minutes after ATP was added to 1 mM (F30) using a Tecan Infinite M200 fluorescence microplate reader with excitation and emission wavelengths set to 643 and 670 nm, respectively. […]
Listed compounds paired with reported Inh. (%) (Inhibition)

# Compound, Inh. (%) (Inhibition)
measured = [
    ("Cn1cnc([N+](=O)[O-])c1Sc1nnc(-c2cccnc2)n1C", 9.9),
    ("CC1OC1C(=O)C1(O)C(C)C(O)C23OC2(C(O)c2c(O)cccc2C3=O)C1O (stereo not shown)", 11.3),
    ("NC(=O)N/N=C1\\CC2C3CC4C2C4C13 (stereo not shown)", "−4.0"),
    ("CCS(=O)(=O)O.CN(C)C(=O)c1cccc(COc2ccc(N3C(N)=NC(N)=NC3(C)C)cc2Cl)c1", 7.0),
]

====

# Measured On: HCV NS3 helicase NS3h_1b(con1) (Hepatitis C virus genotype 1b, UniProt Q9WMX2)
# Construct: truncated C-terminally His-tagged NS3 proteins lacking the N-terminal protease, called NS3h; His-tag (C); made in house
# Measurement Protocol: MBHA screen of NCI mechanistic set library at 20 μM (percent inhibition, compound interference)
# Format: biochemical
# Recorded Conditions: compounds at 20 μM, MBHA with a DNA substrate; calculated from Equation 1
# Description: All molecular beacon-based helicase assays (MBHAs) were performed according to known methods (Belon & Frick (2008) supra; Belon & Frick (2009) supra). […] Fluorescence was read before ATP (F0) addition and 30 minutes after ATP was added to 1 mM (F30) using a Tecan Infinite M200 fluorescence microplate reader with excitation and emission wavelengths set to 643 and 670 nm, respectively. […]

# Molecule, Quantity Unit, Inh. (%) (Inhibition)
rows = [
    ("Cc1cc(Cl)cc2c1NC(=O)C2(O)C(C(=O)c1ccccc1)c1ccccc1 (stereo not shown)", "%", 6.9),
    ("NP(=O)(Oc1c2occc2cc2ccc(=O)oc12)N(CCCl)CCCl (stereo not shown)", "%", 9.2),
    ("COC(=O)Nc1nc2ccc(Br)cc2[nH]1", "%", 7.6),
    ("CCN(CC)Cc1cc(N=Nc2c(O)ccc3c(N=Nc4ccc(O)c(CN(CC)CC)c4)c(O)ccc23)ccc1O.Cl", "%", 7.3),
    ("COc1ccc2c(NCCCCCCNc3c4ccccc4nc4cc(OC)ccc34)c3ccccc3nc2c1", "%", 10.7),
    ("c1coc(CNc2ncnc3[nH]ncc23)c1", "%", "−3.0"),
    ("Cc1ccc([S+](c2ccc(C)cc2)c2ccc(C)cc2)cc1", "%", 7.6),
    ("Nc1nc(=S)c2ncn([C@@H]3C[C@H](O)[C@@H](CO)O3)c2[nH]1", "%", 10.2),
    ("COc1ccc(/C=C2\\N=C(c3ccccc3)OC2=O)c(OCc2ccccc2)c1", "%", "−3.4"),
    ("Cc1c(C(=O)C/C(=N\\O)C(=O)Nc2cc(Cl)c(Cl)cc2Cl)[n+](=O)c2ccccc2n1[O-]", "%", "−21.9"),
]

====

# Measured On: HCV NS3 helicase NS3h_1b(con1) (Hepatitis C virus genotype 1b, UniProt Q9WMX2)
# Construct: truncated C-terminally His-tagged NS3 proteins lacking the N-terminal protease, called NS3h; His-tag (C); made in house
# Measurement Protocol: MBHA screen of NCI mechanistic set library at 20 μM (percent inhibition, compound interference)
# Type: biochemical
# Recorded Conditions: compounds at 20 μM; assay interference calculated with Equation 2 (fluorescence vs DMSO-only controls before ATP)

# Molecule, Measured On, Int.* (Ratio) (Interference)
data = [
    ("COC1=C(C)C(=O)C2=C(C1=O)C(CO)N1C(C#N)C3CC4C(C1C2N1CCOC41)N3C (stereo not drawn)", "HCV NS3 helicase NS3h_1b(con1) (Hepatitis C virus genotype 1b, UniProt Q9WMX2)", 0.91),
    ("O=[N+]([O-])c1cc(C(F)(F)F)cc([N+](=O)[O-])c1CCl", "HCV NS3 helicase NS3h_1b(con1) (Hepatitis C virus genotype 1b, UniProt Q9WMX2)", 1.09),
    ("CN1CCN(CCNc2ccc(CO)c3sc4ccccc4c(=O)c23)CC1", "HCV NS3 helicase NS3h_1b(con1) (Hepatitis C virus genotype 1b, UniProt Q9WMX2)", 0.82),
]

====

# Measured On: HCV NS3 helicase NS3h_1b(con1) (Hepatitis C virus genotype 1b, UniProt Q9WMX2)
# Construct: truncated C-terminally His-tagged NS3 proteins lacking the N-terminal protease, called NS3h; His-tag (C); made in house
# Measurement Protocol: MBHA screen of NCI mechanistic set library at 20 μM (percent inhibition, compound interference)
# Assay type: biochemical
# Recorded Conditions: compounds at 20 μM, MBHA with DNA substrate; calculated from Equation 1
Listed compounds paired with reported Inh. (%) (Inhibition)

# Compound, Inh. (%) (Inhibition)
measured = [
    ("CC(C)(C)CC(C)(C)NCC(O)COc1ccc(C(C)(C)c2ccc(OCC(O)CNC(C)(C)CC(C)(C)C)cc2)cc1.Cl (stereo not shown) [Compound 145366]", 33.1),
    ("CCOc1cccc(/C=N/N=C2\\C(=O)Nc3c(Cl)cc(Cl)cc32)c1O [Compound 329277]", "−11.4"),
    ("CCCCCCCCCc1c(Cl)nc(Cl)nc1Cl [Compound 92510]", "−14.2"),
    ("CC1(C)CC(Nc2ccc(Nc3ccccc3)cc2)CC(C)(C)N1 [Compound 632536]", 20.7),
]

====

# Measured On: HCV NS3 helicase NS3h_1b(con1) (Hepatitis C virus genotype 1b)
# Construct: truncated C-terminally His-tagged NS3 proteins lacking the N-terminal protease, called NS3h; His-tag (C); made in house
# Measurement Protocol: MBHA screen of NCI mechanistic set library at 20 μM (percent inhibition, compound interference)
# Type: biochemical
# Recorded Conditions: compounds at 20 μM, MBHA with DNA substrate; assay interference calculated with Equation 2
Where Int.* (Ratio) (Interference) equals or exceeds 1 Ratio, the correct label is Criterion met; where it does not, the label is Criterion not met.

# Molecule, Cat
records = [
    ("CN1CCN(CN2C(=O)C3C4C=CC(C3C2=O)C2C3C(=O)N(CN5CCN(C)CC5)C(=O)C3C42)CC1 (centres unmarked)", "Criterion met"),
    ("COc1ccc2ccccc2c1C1OC(=O)c2ccccc21 (centres unmarked)", "Criterion not met"),
    ("COc1ccc2cc3[n+](cc2c1OC)CCc1cc2c(cc1-3)OCO2.[Cl-]", "Criterion not met"),
    ("C[n+]1c(-c2ccc(/C=C/C=N/NC(=O)c3ccc(C(=O)N/N=C/C=C/c4ccc(-c5cn6ccccc6[n+]5C)cc4)cc3)cc2)cn2ccccc21.Cc1ccc(S(=O)(=O)O)cc1", "Criterion not met"),
    ("CNC(=O)ON(C(C)=O)C(=O)NC", "Criterion not met"),
]

====

# Measured On: HCV NS3 helicase NS3h_1b(con1) (Hepatitis C virus genotype 1b, UniProt Q9WMX2)
# Construct: truncated C-terminally His-tagged NS3 proteins lacking the N-terminal protease, called NS3h; His-tag (C); made in house
# Measurement Protocol: MBHA screen of NCI mechanistic set library at 20 μM (percent inhibition, compound interference)
# Type: biochemical
# Recorded Conditions: compounds at 20 μM, MBHA with DNA substrate; calculated from Equation 1

# Compound, Quantity Unit, Inh. (%) (Inhibition)
data = [
    ("CN(C)CCNC(=O)c1cccc2[nH]c(-c3ccncc3)nc12.Cl", "%", 0.6),
    ("Cc1ccc(C)c(NC(=O)C(=O)C(C(=O)c2ccc3ccccc3c2)C2OC(=O)c3ccccc32)c1 (stereo not drawn)", "%", "−10.5"),
    ("CC(=O)Nc1ccc(-c2nc3ccccc3s2)cc1", "%", 15.9),
    ("CC(=O)OCc1c2ccccc2c(C)c2c1cc(F)c1ccccc12", "%", 36.6),
    ("Br.CN(C)c1nc(=NCc2ccco2)ss1", "%", "−2.1"),
    ("CCOC(=O)CCn1ncc(Cl)c(Cl)c1=O", "%", 2.3),
    ("C/C(NNC(=O)c1ccccc1O)=C1\\C=Nc2ccccc2S1", "%", 14.5),
    ("Clc1ccc(-c2c(C3=NCCCN3)nnn2-c2ccc(Cl)cc2)cc1", "%", "−18.4"),
    ("NC(=O)NO", "%", 3.7),
]
